Documented LogSel across a set of molecules
target: human GABAA α2β2γ1 receptor (Homo sapiens (Human), UniProt P47869+Q8N1C3); experiment: Radioligand binding assay, [3H]RO7239181 competition, γ1-containing GABAA subtypes; conditions: Log[Ki α1β3γ2 (nM)/Ki α2β2γ1 (nM)]
Give your answer as a number; write no unit.

{"columns": ["Molecule", "Quantity", "Observed value"],
 "data": [
  ["Cc1nccc(-c2nnc3n2-c2ccc(Cl)c(Cl)c2C(c2c(F)cccc2F)=N[C@H]3C)n1", "LogSel", 1.51]
]}

Field LogSel (entry "C[C@@H]1N=C(c2ncccc2F)c2c(ccc(Cl)c2Cl)-n2c(-c3cccnn3)nnc21" ) reads 2.02

Field LogSel (entry "Cc1nnc2n1-c1ccc(Cl)c(Cl)c1C(c1c(F)cccc1F)=N[C@H]2C" ) reads 1.39

Field LogSel (entry Cc1nnc2n1-c1ccc(Br)cc1C(c1c(F)cccc1F)=NC2 [RE-A, reference compound] ) reads −0.74

Field LogSel (entry "Cc1nnc2n1-c1ccc(Br)c(Cl)c1C(c1ncccc1F)=N[C@H]2C" ) reads 1.12

Field LogSel (entry "Cc1nnc2n1-c1ccc(C(F)(F)F)c(Cl)c1C(c1c(F)cccc1F)=N[C@H]2C" ) reads 2.01

Field LogSel (entry "C[C@@H]1N=C(c2c(F)cccc2F)c2c(ccc(Cl)c2Br)-n2c1n[nH]c2=O" ) reads 1.28

Field LogSel (entry "COC[C@@H]1N=C(c2c(F)cccc2F)c2c(ccc(Br)c2Cl)-n2c(C)nnc21" ) reads 1.16

====

target: human GABAA α2β2γ1 receptor (Homo sapiens (Human), UniProt P47869+Q8N1C3); experiment: Radioligand binding assay, [3H]RO7239181 competition, γ1-containing GABAA subtypes; conditions: HEK293F membranes, [3H]RO7239181 20-30 nM, mean of two determinations; read-out: Ki h-GABAA α2β2γ1
Documented log10 Ki across a set of molecules
The base-10 logarithm of Ki, taken with Ki in nM, is what appears here.

Completed entries (count: 4):
{"columns": ["Line notation", "Quantity", "Observed value"],
 "data": [
  ["Cc1nnc2n1-c1ccc(C(F)(F)F)c(Cl)c1C(c1c(F)cccc1F)=N[C@H]2CO", "log10 Ki", 1.85],
  ["C[C@@H]1N=C(c2ncccc2F)c2c(ccc(Cl)c2Cl)-n2c(-c3ccncn3)nnc21", "log10 Ki", 1.99],
  ["C[C@@H]1N=C(c2c(F)cccc2F)c2c(ccc(Cl)c2Br)-n2c(-c3cnn(C)c3)nnc21", "log10 Ki", 1.40],
  ["Cc1cc(-c2nnc3n2-c2ccc(Cl)c(Cl)c2C(c2c(F)cccc2F)=N[C@H]3C)on1", "log10 Ki", 0.88]
]}

Field log10 Ki (entry "Cc1cc(-c2nnc3n2-c2ccc(Cl)c(Cl)c2C(c2c(F)cccc2F)=N[C@H]3C)nc(C)n1" ) reads 1.14

Field log10 Ki (entry "Cc1cc(-c2nnc3n2-c2ccc(Cl)c(Cl)c2C(c2c(F)cccc2F)=N[C@H]3C)ncn1" ) reads 0.90

Field log10 Ki (entry "C[C@@H]1N=C(c2c(F)cccc2F)c2c(ccc(Cl)c2Cl)-n2c1n[nH]c2=O" ) reads 1.12

Field log10 Ki (entry "C[C@@H]1N=C(c2c(F)cccc2F)c2c(ccc(C(F)(F)F)c2Cl)-n2cnnc21" ) reads 1.83

====

target: h-GABA-A α2β2γ1 (Homo sapiens (Human), UniProt P47869+Q8N1C3); test: Two-electrode voltage clamp electrophysiology in Xenopus oocytes expressing GABAA receptors; assay type: cell-based; conditions: GABA EC20, test compound at about 30-fold its Ki α2β2γ1, at least 3 oocytes
Quantity: Fold increase h-GABA-A α2β2γ1 oocyte @ 30-fold Ki
Give your answer as a number; write no unit.

Completed entries (count: 4):
{"columns": ["Molecule", "Observed value"],
 "data": [
  ["Cc1nnc2n1-c1ccc(I)c(Cl)c1C(c1c(F)cccc1F)=N[C@H]2C [Example 102]", 1.89],
  ["C[C@@H]1N=C(c2c(F)cccc2F)c2c(ccc(Cl)c2Br)-n2c(-c3ccncn3)nnc21 [Example 74]", 1.62],
  ["C[C@@H]1N=C(c2ccccc2F)c2c(ccc(Br)c2Cl)-n2c(-c3cccnn3)nnc21 [Example 32]", 2.05],
  ["Cc1nccc(-c2nnc3n2-c2ccc(Cl)c(Cl)c2C(c2c(F)cccc2F)=N[C@H]3C)n1 [Example 95]", 1.53]
]}

Field Fold increase h-GABA-A α2β2γ1 oocyte @ 30-fold Ki (entry Cc1nnc2n1-c1ccc(Cl)c(Br)c1C(c1c(F)cccc1F)=N[C@H]2C [Example 80] ) reads 1.59

Field Fold increase h-GABA-A α2β2γ1 oocyte @ 30-fold Ki (entry C[C@@H]1N=C(c2ncccc2F)c2c(ccc(Br)c2Cl)-n2cnnc21 [Example 84] ) reads 3.03

Field Fold increase h-GABA-A α2β2γ1 oocyte @ 30-fold Ki (entry C[C@@H]1N=C(c2c(F)cccc2F)c2c(ccc(C(F)(F)F)c2Cl)-n2cnnc21 [Example 107] ) reads 2.47

Field Fold increase h-GABA-A α2β2γ1 oocyte @ 30-fold Ki (entry Cc1nnc2n1-c1ccc(Br)c(Cl)c1C(c1ncccc1F)=N[C@H]2C [Example 85] ) reads 2.14

Field Fold increase h-GABA-A α2β2γ1 oocyte @ 30-fold Ki (entry C[C@@H]1N=C(c2c(F)cccc2F)c2c(ccc(Cl)c2Br)-n2c(-c3cnn(C)c3)nnc21 [Example 76] ) reads 1.52

Field Fold increase h-GABA-A α2β2γ1 oocyte @ 30-fold Ki (entry COC[C@@H]1N=C(c2c(F)cccc2F)c2c(ccc(C(F)(F)F)c2Cl)-n2c(C)nnc21 [Example 105] ) reads 1.75

====

molecular target: h-GABA-A α2β2γ1 (Homo sapiens (Human), UniProt P47869+Q8N1C3); assay: Two-electrode voltage clamp electrophysiology in Xenopus oocytes expressing GABAA receptors; format: cell-based; settings: % modulation of GABA EC20 = 100*(Fold increase−1), compound at 30-fold Ki
Documented Efficacy (GABA)% across a set of molecules
Return type: number; implicit unit %.

{"columns": ["Molecule", "Assay system", "Readout units", "Observed value"],
 "data": [
  ["Cc1nnc2n1-c1ccc(Br)c(Cl)c1C(c1c(F)cccc1F)=N[C@H]2CO [Example 101]", "h-GABA-A α2β2γ1 (Homo sapiens (Human), UniProt P47869+Q8N1C3)", "%", 119]
]}

Field Efficacy (GABA)% (entry Cc1nnc2n1-c1ccc(C(F)(F)F)c(Cl)c1C(c1c(F)cccc1F)=N[C@H]2C [Example 92] ) reads 92

Field Efficacy (GABA)% (entry Cc1nnc2n1-c1ccc(Cl)c(Br)c1C(c1c(F)cccc1F)=N[C@H]2C [Example 80] ) reads 59

Field Efficacy (GABA)% (entry C[C@@H]1N=C(c2ncccc2F)c2c(ccc(Cl)c2Cl)-n2c(-c3cnn(C)c3)nnc21 [Example 67] ) reads 69

Field Efficacy (GABA)% (entry C[C@@H]1N=C(c2c(F)cccc2F)c2c(ccc(Br)c2Cl)-n2cnnc21 [Example 51] ) reads 56

Field Efficacy (GABA)% (entry C[C@@H]1N=C(c2ncccc2F)c2c(ccc(Cl)c2Cl)-n2c(-c3ccncn3)nnc21 [Example 66] ) reads 143

Field Efficacy (GABA)% (entry CCc1nnc2n1-c1ccc(C(F)(F)F)c(Cl)c1C(c1c(F)cccc1F)=N[C@H]2C [Example 108] ) reads 94

Field Efficacy (GABA)% (entry C[C@@H]1N=C(c2ncccc2F)c2c(ccc(Br)c2Cl)-n2cnnc21 [Example 84] ) reads 203

====

molecular target: human GABAA α1β3γ2 receptor (Homo sapiens (Human), UniProt P14867+P18507); test: Radioligand binding assay, [3H]Flumazenil competition, γ2-containing GABAA subtypes; conditions: HEK293F membranes, [3H]Flumazenil 1 nM, mean of two determinations; read-out: Ki h-GABAA α1β3γ2
Quantity: Ki (µM)
Return type: number; implicit unit µM.

{"columns": ["Molecule", "Quantity", "Observed value"],
 "data": [
  ["Cc1cc(-c2nnc3n2-c2ccc(Cl)c(Cl)c2C(c2c(F)cccc2F)=N[C@H]3C)ncn1 [Example 94]", "Ki", 0.609],
  ["C[C@@H]1N=C(c2c(F)cccc2F)c2c(ccc(Cl)c2Cl)-n2c(-c3ccncn3)nnc21 [Example 52]", "Ki", 0.638],
  ["C[C@@H]1N=C(c2ncccc2F)c2c(ccc(Cl)c2Cl)-n2c(-c3cccnn3)nnc21 [Example 63]", "Ki", 4.08]
]}

Field Ki (entry C[C@@H]1N=C(c2ncccc2F)c2c(ccc(Cl)c2Cl)-n2c(-c3ccncn3)nnc21 [Example 66] ) reads 3.28

Field Ki (entry Cc1ccc(-c2nnc3n2-c2ccc(Cl)c(Cl)c2C(c2c(F)cccc2F)=N[C@H]3C)nn1 [Example 86] ) reads 0.86

Field Ki (entry C[C@@H]1N=C(c2c(F)cccc2F)c2c(ccc(Cl)c2Br)-n2c(-c3cccnn3)nnc21 [Example 73] ) reads 0.768

Field Ki (entry Cc1nnc2n1-c1ccc(Br)c(Cl)c1C(c1c(F)cccc1F)=N[C@H]2CO [Example 101] ) reads 0.495

Field Ki (entry Cc1nnc2n1-c1ccc(Cl)c(Br)c1C(c1c(F)cccc1F)=N[C@H]2C [Example 80] ) reads 1.07

Field Ki (entry C[C@@H]1N=C(c2c(F)cccc2F)c2c(ccc(Cl)c2Br)-n2c1n[nH]c2=O [Example 89] ) reads 1.46
